test system: RET (human), P07949 [V804L]; assay: KINOMEscan competition binding; conditions: compound 10.0 µM
Sequence (P07949 whole entry V804L, looked up): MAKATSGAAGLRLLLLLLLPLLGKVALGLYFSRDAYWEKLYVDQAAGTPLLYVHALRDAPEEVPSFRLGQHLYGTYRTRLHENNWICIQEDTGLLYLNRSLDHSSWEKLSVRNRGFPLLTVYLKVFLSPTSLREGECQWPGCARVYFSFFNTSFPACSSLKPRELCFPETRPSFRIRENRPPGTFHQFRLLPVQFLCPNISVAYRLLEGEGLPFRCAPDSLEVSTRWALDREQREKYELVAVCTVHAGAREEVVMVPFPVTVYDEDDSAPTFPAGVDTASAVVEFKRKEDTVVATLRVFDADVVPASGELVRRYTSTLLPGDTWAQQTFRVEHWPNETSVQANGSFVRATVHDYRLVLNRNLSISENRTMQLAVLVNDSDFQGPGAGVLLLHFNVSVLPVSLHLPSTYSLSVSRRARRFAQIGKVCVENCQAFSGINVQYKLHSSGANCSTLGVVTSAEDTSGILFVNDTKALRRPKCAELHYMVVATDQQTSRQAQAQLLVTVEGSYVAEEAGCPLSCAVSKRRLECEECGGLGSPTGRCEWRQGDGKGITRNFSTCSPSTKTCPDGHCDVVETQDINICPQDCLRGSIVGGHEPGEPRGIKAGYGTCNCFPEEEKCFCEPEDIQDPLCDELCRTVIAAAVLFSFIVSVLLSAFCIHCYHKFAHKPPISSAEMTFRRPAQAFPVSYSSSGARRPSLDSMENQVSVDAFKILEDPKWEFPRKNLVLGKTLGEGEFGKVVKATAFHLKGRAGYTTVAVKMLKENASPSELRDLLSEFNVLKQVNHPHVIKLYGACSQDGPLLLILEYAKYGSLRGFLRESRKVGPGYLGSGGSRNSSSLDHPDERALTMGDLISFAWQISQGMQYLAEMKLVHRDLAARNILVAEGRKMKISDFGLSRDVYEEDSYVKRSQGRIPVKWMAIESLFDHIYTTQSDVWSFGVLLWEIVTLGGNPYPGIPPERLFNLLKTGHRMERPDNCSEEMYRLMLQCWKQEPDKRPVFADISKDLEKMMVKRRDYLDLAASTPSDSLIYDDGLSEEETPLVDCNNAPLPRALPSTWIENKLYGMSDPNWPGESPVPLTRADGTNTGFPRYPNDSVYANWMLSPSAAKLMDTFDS
Outcome Measure: kinase still bound, per cent of control (%)
The answer is to be given in %; state only the numeric part.

As a guide, the following entries are already answered.
{"Smiles Repr": "CN(C)C/C=C/C(=O)Nc1ccc(C(=O)Nc2cccc(Nc3nccc(-c4cccnc4)n3)c2)cc1", "kinase still bound, per cent of control (%)": 84}
{"Smiles Repr": "CCN(CCO)CCCOc1ccc2c(Nc3cc(CC(=O)Nc4cccc(F)c4)[nH]n3)ncnc2c1", "kinase still bound, per cent of control (%)": 2}
{"Smiles Repr": "Cc1ccc(NC(=O)c2cccc(C(C)(C)C#N)c2)cc1Nc1ccc2ncn(C)c(=O)c2c1", "kinase still bound, per cent of control (%)": 31}
{"Smiles Repr": "CCC(=O)N1CCN(c2ccc(-n3c(=O)ccc4cnc5ccc(-c6cnc7ccccc7c6)cc5c43)cc2C(F)(F)F)CC1", "kinase still bound, per cent of control (%)": 66}
{"Smiles Repr": "O=c1cc(N2CCOCC2)oc2c(-c3cccc4c3sc3ccccc34)cccc12", "kinase still bound, per cent of control (%)": 100}
{"Smiles Repr": "O=C(Nc1cccc(Nc2ncc(Br)c(NCCc3cnc[nH]3)n2)c1)N1CCCC1", "kinase still bound, per cent of control (%)": 0.15}
{"Smiles Repr": "CCOc1cc2ncc(C#N)c(Nc3ccc(OCc4ccccn4)c(Cl)c3)c2cc1NC(=O)/C=C/CN(C)C", "kinase still bound, per cent of control (%)": 100}
{"Smiles Repr": "C=CC(=O)Nc1cccc(Nc2nc(N[C@H]3CC[C@H](N(C)C)CC3)nc3c2ncn3C(C)C)c1", "kinase still bound, per cent of control (%)": 80}

query: What is its kinase still bound, per cent of control for RET (human), P07949 [V804L]? Entry: C=CC(=O)Nc1ccc(C(=O)c2sc(Nc3ccc(N4CCN(C)CC4)cc3OC)nc2N)cc1
result: 100

query: What is its kinase still bound, per cent of control for RET (human), P07949 [V804L]? Entry: CCN(CC)CCCCNc1ncc2c(n1)N(C)C(=O)N(c1c(Cl)c(OC)cc(OC)c1Cl)C2
result: 100

query: What is its kinase still bound, per cent of control for RET (human), P07949 [V804L]? Entry: CCCS(=O)(=O)Nc1ccc(F)c(C(=O)c2c[nH]c3ncc(-c4ccc(Cl)cc4)cc23)c1F
result: 90

query: What is its kinase still bound, per cent of control for RET (human), P07949 [V804L]? Entry: COc1cc(N2CCN(C)CC2)ccc1Nc1ncc2c(n1)N(C)c1ccccc1C(=O)N2C
result: 100

query: What is its kinase still bound, per cent of control for RET (human), P07949 [V804L]? Entry: CCOc1cc(N2CCC(O)CC2)ccc1Nc1ncc2c(n1)N(C)c1ccccc1C(=O)N2C
result: 100

query: What is its kinase still bound, per cent of control for RET (human), P07949 [V804L]? Entry: COc1cc2ncn(-c3cc(OCc4ccccc4C(F)(F)F)c(C(N)=O)s3)c2cc1OC
result: 24

query: What is its kinase still bound, per cent of control for RET (human), P07949 [V804L]? Entry: CS(=O)(=O)N1CCN(Cc2cc3nc(-c4cccc5[nH]ncc45)nc(N4CCOCC4)c3s2)CC1
result: 100
